assay: Conversion of Hipp-Glu by purified HCPB mutants, 30 minutes, HPLC (Example 17); type: biochemical; settings: enzyme 2.5 μg/ml; 0.5 mM substrate; 30 minutes at 37° C.
MEASUREMENT LABEL: Hipp-Glu (% conversion) (%)

[G251K, D253R]: HCPB mutant with G251K and D253R (protein, UniProt P15086 111-417, looked up, variant G251K D253R) Carboxypeptidase B: ATGHSYEKYNKWETIEAWTQQVATENPALISRSVIGTTFEGRAIYLLKVGKAGQNKPAIFMDCGFHAREWISPAFCQWFVREAVRTYGREIQVTELLDKLDFYVLPVLNIDGYIYTWTKSRFWRKTRSTHTGSSCIGTDPNRNFDAGWCEIGASRNPCDETYCGPAAESEKETKALADFIRNKLSSIKAYLTIHSYSQMMIYPYSYAYKLGENNAELNALAKATVKELASLHGTKYTYGPGATTIYPAAGKSRDWAYDQGIRYSFTFELRDTGRYGFLLPESQIRATCEETFLAIKYVASYVLEHLY = 3.2
